- TARGET SYSTEM: T1, human CD47-Fc (human, UniProt Q08722 19-139)
- T1 construct: also called hCD47; not shown: Fc part
- PROTOCOL SUMMARY: BLI (ForteBio), antibody on AHQ tip, human CD47-Fc in solution 100 nM, bivalent
MEASURED QUANTITY: Kd (nM)
// return numeric value only (unit: nM, not printed)

Data request: What does the data say about its Kd? Entry: ADI-29342 (antibody, human IgG1, kappa, V domains shown, Full-length IgG1 kappa expressed in yeast, purified by Protein A) VH: QVQLQESGPGLVKPSETLSLTCTVSGGSIMHYYWSWIRQPPGKGLEWIGYIYYSGSTNYNPSLKSRVTISVDTSKNQFSLKLSSVTAADTAVYYCARGKTGSAAWGQGTLVTVSS VL: DIQMTQSPSSVSASVGDRVTITCRASQGISRWLAWYQQKPGKAPKLLIYAASSLQSGVPSRFSGSGSGTDFTLTISSLQPEDFATYYCQQTVSFPITFGGGTKVEIKR
Data returned: 0.486
